protocol: self-splicing fitness, log relative to wild type (ln ratio); higher = more splicing; Tetrahymena group I intron in knt gene, E. coli kanamycin selection, DiMSum; sequences stand for … in CUCUCU…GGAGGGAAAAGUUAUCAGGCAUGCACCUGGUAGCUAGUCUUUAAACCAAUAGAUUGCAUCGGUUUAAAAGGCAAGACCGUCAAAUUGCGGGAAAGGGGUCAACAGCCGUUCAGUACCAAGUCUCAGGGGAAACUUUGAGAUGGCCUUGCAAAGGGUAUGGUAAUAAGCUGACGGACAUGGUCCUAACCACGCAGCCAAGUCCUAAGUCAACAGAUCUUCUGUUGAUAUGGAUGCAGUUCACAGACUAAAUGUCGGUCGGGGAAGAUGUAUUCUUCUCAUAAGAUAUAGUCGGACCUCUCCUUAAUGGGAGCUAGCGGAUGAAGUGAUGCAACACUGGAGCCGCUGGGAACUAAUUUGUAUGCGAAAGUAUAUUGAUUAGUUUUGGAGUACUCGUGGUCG;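 also: selection with 25 µg/mL kanamycin versus none on LB agar overnight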
test.settings: 30 °C
Decision: self-splicing fitness (ln) compared against -2; not below it gives 1, below it gives 0.

Observe how each entry below is paired with its result.
biosequence | group
AUACAGCAAUAUUACGCGCU | 1
AGGUAGCAAUAUUACGAAUC | 0

Moving on to another sequence below.
Asked: Has GCCUAGCAAUAUUACGUUGU a recorded self-splicing fitness (ln) greater than or equal to -2?
Given back: 1
